The reported measurements were obtained from the supplement of paper PMC10065799.

Measured target: Jak2 (UniProt O60674)
Sequence (O60674 whole entry, looked up): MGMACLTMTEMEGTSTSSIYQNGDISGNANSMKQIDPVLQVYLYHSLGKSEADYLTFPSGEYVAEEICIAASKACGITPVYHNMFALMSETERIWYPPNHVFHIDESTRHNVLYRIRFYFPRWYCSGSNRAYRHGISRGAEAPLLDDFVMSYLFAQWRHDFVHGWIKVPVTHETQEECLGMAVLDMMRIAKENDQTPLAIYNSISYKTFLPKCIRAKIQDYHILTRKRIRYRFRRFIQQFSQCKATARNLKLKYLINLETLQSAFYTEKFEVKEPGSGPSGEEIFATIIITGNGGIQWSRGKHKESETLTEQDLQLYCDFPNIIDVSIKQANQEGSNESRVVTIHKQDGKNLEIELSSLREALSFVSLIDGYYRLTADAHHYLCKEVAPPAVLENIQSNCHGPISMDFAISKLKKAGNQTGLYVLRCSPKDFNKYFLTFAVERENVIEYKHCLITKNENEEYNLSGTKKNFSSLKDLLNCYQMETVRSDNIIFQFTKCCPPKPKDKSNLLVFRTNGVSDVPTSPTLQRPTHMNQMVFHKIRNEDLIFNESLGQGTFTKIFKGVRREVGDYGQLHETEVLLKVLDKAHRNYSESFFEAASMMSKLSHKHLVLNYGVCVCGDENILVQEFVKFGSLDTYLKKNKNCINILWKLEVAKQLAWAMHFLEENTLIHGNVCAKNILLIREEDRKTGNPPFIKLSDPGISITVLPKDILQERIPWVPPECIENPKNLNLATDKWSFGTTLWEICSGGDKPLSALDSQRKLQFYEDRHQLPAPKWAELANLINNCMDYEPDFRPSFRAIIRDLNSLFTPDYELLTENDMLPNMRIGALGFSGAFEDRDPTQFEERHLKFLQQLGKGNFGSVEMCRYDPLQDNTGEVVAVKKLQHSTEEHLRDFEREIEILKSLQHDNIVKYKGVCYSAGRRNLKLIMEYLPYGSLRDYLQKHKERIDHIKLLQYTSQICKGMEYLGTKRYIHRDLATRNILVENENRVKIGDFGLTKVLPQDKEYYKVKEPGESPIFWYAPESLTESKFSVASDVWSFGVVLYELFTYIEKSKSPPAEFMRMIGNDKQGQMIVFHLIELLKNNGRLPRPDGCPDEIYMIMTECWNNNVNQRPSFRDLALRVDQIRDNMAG
Run description: phosphorylation enrichment, bacterial display (enrichment ratio); higher = better substrate or ligand; peptides without Tyr show the background;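 further: 11-residue human phosphosite peptides and single-mutation variants displayed on the E. coli surface, counted by deep sequencing, each peptide's frequency after selection divided by its frequency in the unselected input library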;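 further: frequency after pTyr selection over input frequency; kinase dosed for 20-30% of maximal phosphorylation in three min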
# phosphorylation enrichment annotations
Reported property: phosphorylation enrichment

[[record]]
polymer_sequence = "RGYRVCYTPDS [PTPRF_Y450_Y450C]"
reported_property = "phosphorylation enrichment"
observed = 1.86

[[record]]
polymer_sequence = "TKEPKYGGAGS [KIAA1210_Y1615_E1616G]"
reported_property = "phosphorylation enrichment"
observed = 0.416

[[record]]
polymer_sequence = "IENKLYGTSDP [RET_Y1062_M1064T]"
reported_property = "phosphorylation enrichment"
observed = 0.817

[[record]]
polymer_sequence = "CLAKMYYSAVD [CP_Y539]"
reported_property = "phosphorylation enrichment"
observed = 0.956

[[record]]
polymer_sequence = "IGEVVYQWAVM [GRIN2A_Y502_R504W]"
reported_property = "phosphorylation enrichment"
observed = 1.17

[[record]]
polymer_sequence = "NLTLKYPIEHG [ACTA1_Y71_I66N]"
reported_property = "phosphorylation enrichment"
observed = 0.669

[[record]]
polymer_sequence = "NPSYNYEIVNQ [DYNC1H1_Y3379_R3384Q]"
reported_property = "phosphorylation enrichment"
observed = 0.754

[[record]]
polymer_sequence = "RQQQDYWLKDV [ANPEP_Y600_I603K]"
reported_property = "phosphorylation enrichment"
observed = 1.25

[[record]]
polymer_sequence = "DAAEDYAEGVR [DHODH_Y194]"
reported_property = "phosphorylation enrichment"
observed = 0.951

[[record]]
polymer_sequence = "PPSGEYFGQCG [TRIP6_Y275]"
reported_property = "phosphorylation enrichment"
observed = 1.52

[[record]]
polymer_sequence = "ADLAKYICENQ [ALB_Y287]"
reported_property = "phosphorylation enrichment"
observed = 1.09

[[record]]
polymer_sequence = "LKLWDYSRGRC [WDR5B_Y239]"
reported_property = "phosphorylation enrichment"
observed = 0.724

[[record]]
polymer_sequence = "TIQDAYMHITS [ADCY10_Y318_A313T]"
reported_property = "phosphorylation enrichment"
observed = 0.676

[[record]]
polymer_sequence = "PRAEWYRDDVL [MYOM2_Y317]"
reported_property = "phosphorylation enrichment"
observed = 1.11

[[record]]
polymer_sequence = "GASWRYRSGVS [NEU1_Y242_G243R]"
reported_property = "phosphorylation enrichment"
observed = 0.587

[[record]]
polymer_sequence = "GSRGKYSSGFH [ATM_Y332_R337H]"
reported_property = "phosphorylation enrichment"
observed = 0.439

[[record]]
polymer_sequence = "MSFDRYMAVCH [OR2A5_Y123_I126V_YF]"
reported_property = "phosphorylation enrichment"
observed = 0.927

[[record]]
polymer_sequence = "ARKCKYFKKHE [NFIX_Y40_R38C]"
reported_property = "phosphorylation enrichment"
observed = 0.596

[[record]]
polymer_sequence = "KKHIPYRQHKS [CSNK1G2_Y206_E208Q]"
reported_property = "phosphorylation enrichment"
observed = 4.52

[[record]]
polymer_sequence = "SASSSYSRSRS [SRRM4_Y549_R547S]"
reported_property = "phosphorylation enrichment"
observed = 0.451

[[record]]
polymer_sequence = "WRPFGYPRCRR [BCS1L_Y181_R184C]"
reported_property = "phosphorylation enrichment"
observed = 0.485

[[record]]
polymer_sequence = "REIIAYQPFGK [PRKCG_Y529_P524R_YF]"
reported_property = "phosphorylation enrichment"
observed = 0.584

[[record]]
polymer_sequence = "MGIMLYGVDSR [PKD1_Y3143_V3138M]"
reported_property = "phosphorylation enrichment"
observed = 1.03

[[record]]
polymer_sequence = "GSTLSYFGLAT [P2RX7_Y343_A348T]"
reported_property = "phosphorylation enrichment"
observed = 5.4

[[record]]
polymer_sequence = "THPFLYLSLEI [MLH1_Y293]"
reported_property = "phosphorylation enrichment"
observed = 1.4

[[record]]
polymer_sequence = "FGLDRYQCDCT [PTGS1_Y54]"
reported_property = "phosphorylation enrichment"
observed = 0.874

[[record]]
polymer_sequence = "GGQVFYNSEYG [FLT4_Y1333]"
reported_property = "phosphorylation enrichment"
observed = 0.751

[[record]]
polymer_sequence = "GQRDLYSGLNQ [CD3E_Y199]"
reported_property = "phosphorylation enrichment"
observed = 0.594

[[record]]
polymer_sequence = "PLQHVYKIGGI [EEF1A2_Y254_D252H]"
reported_property = "phosphorylation enrichment"
observed = 1.52

[[record]]
polymer_sequence = "EQLRAYLEGLC [HLA-C_Y183_T187L]"
reported_property = "phosphorylation enrichment"
observed = 1.45

[[record]]
polymer_sequence = "GPQSLYNGLVA [UCP2_Y79_R76Q]"
reported_property = "phosphorylation enrichment"
observed = 0.744

[[record]]
polymer_sequence = "HFMELYDLNRD [BBS2_Y648_R643H_YF]"
reported_property = "phosphorylation enrichment"
observed = 1.28

[[record]]
polymer_sequence = "PDGREYIFVDP [PDGFRA_Y572_H570R_YF]"
reported_property = "phosphorylation enrichment"
observed = 1.02

[[record]]
polymer_sequence = "TGTQLYGRFGS [ITGA2B_Y384]"
reported_property = "phosphorylation enrichment"
observed = 0.608

[[record]]
polymer_sequence = "FSIAQYCCRMG [LRRK2_Y2023_G2019S_YF]"
reported_property = "phosphorylation enrichment"
observed = 0.758

[[record]]
polymer_sequence = "AQINLYQDVML [ZNF806_Y33]"
reported_property = "phosphorylation enrichment"
observed = 1.01

[[record]]
polymer_sequence = "GAVDTYCRHNF [HLA-DRB1_Y107_A102G_YF]"
reported_property = "phosphorylation enrichment"
observed = 0.648

[[record]]
polymer_sequence = "LKALKYKSMKI [ITGA11_Y1098]"
reported_property = "phosphorylation enrichment"
observed = 0.735

[[record]]
polymer_sequence = "YGCGMYSHLQG [LGR4_Y848_D844G]"
reported_property = "phosphorylation enrichment"
observed = 0.723

[[record]]
polymer_sequence = "LYDPDFMKVIL [CYP4A22_Y104_Y104F]"
reported_property = "phosphorylation enrichment"
observed = 1.39

[[record]]
polymer_sequence = "KPVDTYYDSTR [DYNC2H1_Y2230_M2227V]"
reported_property = "phosphorylation enrichment"
observed = 0.756

[[record]]
polymer_sequence = "DPASAYADEVK [ETNPPL_Y189_S185P]"
reported_property = "phosphorylation enrichment"
observed = 1.06

